COMPOUND: O=C1NC(Cc2ccc(OCc3ccccc3)cn2)C(=O)NC1Cc1ccc(OCc2ccccc2)cn1 (centres unmarked) [Compound 13]
melting point: 228 to 231 °C
--
COMPOUND: O=c1[nH]c(=Cc2ccc(OCc3ccccc3)cn2)c(=O)[nH]c1=Cc1ccc(OCc2ccccc2)cn1 [Compound 10]
melting point: 283 to 328 °C
--
COMPOUND: O=c1[nH]c(=Cc2ccc(OCc3ccccc3)cn2)c(=O)[nH]c1=Cc1ccccn1 [Compound 9]
melting point: 248 to 250 °C
--
COMPOUND: CC(=O)N1CC(=O)NC(Cc2ccc(OCc3ccccc3)cn2)C1=O (centres unmarked) [Compound 12]
melting point: 215 to 216 °C
--
COMPOUND: O=c1[nH]c(=Cc2ccco2)c(=O)[nH]c1=Cc1ccc(OCc2ccccc2)cn1 [Compound 7]
melting point: 256 to 257 °C
